Activity calls are given as the source filed them.
# Kd per entry for Tyrosine-protein kinase CSK (Homo sapiens)

| mol-smiles | Kd |
| --- | --- |
| Cc1ccc(S(=O)(=O)Nc2nc3ccccc3nc2Nc2ccc3nsnc3c2)cc1 | > 30 µM (inactive) |
| COc1cc(N2CCC(N3CCN(C)CC3)CC2)ccc1Nc1ncnc(Nc2ccccc2S(=O)(=O)C(C)C)n1 | > 30 µM (inactive) |
| Cn1cc(-c2ccc3nnc(C(F)(F)c4ccc5ncccc5c4)n3n2)cn1 | > 30 µM (inactive) |
| COc1cc(OC)c(/C=C/S(=O)(=O)Cc2ccc(OC)c(NCC(=O)O)c2)c(OC)c1 | > 30 µM (inactive) |

====

measurement-target: Tyrosine-protein kinase CSK (Homo sapiens, UniProt P41240); also: in the data inactive means no Kd found up to 30 µM
Sequence (P41240 whole entry): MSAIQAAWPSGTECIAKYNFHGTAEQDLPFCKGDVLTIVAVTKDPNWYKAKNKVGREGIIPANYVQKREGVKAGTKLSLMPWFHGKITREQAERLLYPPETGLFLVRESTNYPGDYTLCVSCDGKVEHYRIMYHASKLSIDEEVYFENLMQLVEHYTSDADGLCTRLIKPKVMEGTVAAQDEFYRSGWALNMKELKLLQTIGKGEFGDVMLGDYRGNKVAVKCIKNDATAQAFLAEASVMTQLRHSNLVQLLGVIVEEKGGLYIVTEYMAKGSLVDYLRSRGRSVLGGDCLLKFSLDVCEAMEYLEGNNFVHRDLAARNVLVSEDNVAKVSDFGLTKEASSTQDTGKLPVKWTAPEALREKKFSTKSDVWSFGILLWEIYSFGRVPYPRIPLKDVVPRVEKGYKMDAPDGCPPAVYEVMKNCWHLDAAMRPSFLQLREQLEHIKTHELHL
Active and inactive are the calls of the source.
Possible outcomes: active, inactive

| mol-smiles | qualitative-label |
| --- | --- |
| Cn1ncc(Cl)c1-c1cc(C(=O)N[C@H](CN)Cc2cccc(F)c2)sc1Cl | inactive |
| Cc1ccc(NC(=O)c2ccc(CN3CC[C@H](N(C)C)C3)c(C(F)(F)F)c2)cc1Nc1nccc(-c2cncnc2)n1 | active |
| O=C(Nc1cccc(Cl)c1)Nc1ncc(CCNc2ncnc3ccsc23)s1 | inactive |
| COc1cc(CCc2cc(NC(=O)c3ccc(N4C[C@@H](C)N[C@@H](C)C4)cc3)n[nH]2)cc(OC)c1 | inactive |
| CNS(=O)(=O)Nc1nccc(Cc2c(C)c3ccc(Oc4ncccn4)cc3oc2=O)c1F | inactive |
| Cc1nc(N)sc1-c1ccnc(Nc2ccc(N3CCOCC3)cc2)n1 | inactive |
| O=c1sn(-c2cccc3ccccc23)c(=O)n1Cc1ccccc1 | inactive |
| Cc1c(F)cc(C(=O)NC2CC2)cc1-c1ccc(C(=O)NCC(C)(C)C)cn1 | inactive |
| CO[C@H]1C[C@@H]2CC[C@@H](C)[C@@](O)(O2)C(=O)C(=O)N2CCCC[C@H]2C(=O)O[C@H]([C@H](C)C[C@@H]2CC[C@@H](OCCO)[C@H](OC)C2)CC(=O)[C@H](C)/C=C(\C)[C@@H](O)[C@@H](OC)C(=O)[C@H](C)C[C@H](C)/C=C/C=C/C=C/1C | inactive |
| C[C@@H](Nc1cc(F)cc(F)c1)c1cc(C(=O)N(C)C)cc2c(=O)cc(N3CCOCC3)oc12 | inactive |
| CCS(=O)(=O)N1CC(CC#N)(n2cc(-c3ncnc4[nH]ccc34)cn2)C1 | inactive |
| CCCS(=O)(=O)Nc1ccc(F)c(C(=O)c2c[nH]c3ncc(-c4ccc(Cl)cc4)cc23)c1F | inactive |
| COc1cc2nccc(Oc3ccc(NC(=O)Nc4cc(C)on4)c(Cl)c3)c2cc1OC | inactive |
| Cc1cc([C@@H](C)Nc2ccccc2C(=O)O)c2nc(N3CCOCC3)cc(=O)n2c1 | inactive |
| C=CC(=O)N1CCC(Oc2cc3c(Nc4ccc(Cl)c(Cl)c4F)ncnc3cc2OC)CC1 | inactive |

====

measurement-target: Mitogen-activated protein kinase kinase kinase kinase 2 (Homo sapiens, UniProt Q12851); also: in the data inactive means no Kd found up to 30 µM
Sequence (Q12851 whole entry): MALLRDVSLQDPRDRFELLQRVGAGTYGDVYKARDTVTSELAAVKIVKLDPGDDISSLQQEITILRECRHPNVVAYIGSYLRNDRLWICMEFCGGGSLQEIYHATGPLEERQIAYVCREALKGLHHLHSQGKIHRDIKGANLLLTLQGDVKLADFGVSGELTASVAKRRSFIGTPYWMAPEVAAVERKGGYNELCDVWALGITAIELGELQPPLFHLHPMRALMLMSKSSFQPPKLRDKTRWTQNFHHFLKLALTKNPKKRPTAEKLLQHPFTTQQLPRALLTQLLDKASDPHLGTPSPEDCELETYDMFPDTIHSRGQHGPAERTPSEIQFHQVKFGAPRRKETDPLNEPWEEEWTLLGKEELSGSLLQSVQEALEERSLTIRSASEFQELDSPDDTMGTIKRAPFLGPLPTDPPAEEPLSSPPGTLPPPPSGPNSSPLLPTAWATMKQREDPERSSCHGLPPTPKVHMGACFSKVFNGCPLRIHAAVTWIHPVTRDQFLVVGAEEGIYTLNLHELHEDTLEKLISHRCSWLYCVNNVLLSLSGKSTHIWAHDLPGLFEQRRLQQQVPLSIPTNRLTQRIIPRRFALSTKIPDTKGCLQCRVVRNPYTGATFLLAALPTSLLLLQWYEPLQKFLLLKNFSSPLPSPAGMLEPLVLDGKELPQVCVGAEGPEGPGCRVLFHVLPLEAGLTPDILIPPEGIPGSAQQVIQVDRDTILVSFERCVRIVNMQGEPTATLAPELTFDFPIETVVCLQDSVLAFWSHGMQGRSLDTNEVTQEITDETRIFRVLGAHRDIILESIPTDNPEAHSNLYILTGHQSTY
Calls of active or inactive are those of the source.
Possible outcomes: active, inactive

| compound | qualitative-label |
| --- | --- |
| C[C@@H](c1ccc2nccn2c1)n1nnc2ncc(-c3cnn(C)c3)nc21 | inactive |
| COc1cc(N2CCC(N3CCN(C)CC3)CC2)ccc1Nc1ncnc(Nc2ccccc2S(=O)(=O)C(C)C)n1 | inactive |
| CNS(=O)(=O)Nc1nccc(Cc2c(C)c3ccc(Oc4ncccn4)cc3oc2=O)c1F | inactive |
| O=C(Nc1ccc(-c2ccnc(Nc3ccc(N4CCOCC4)cc3)n2)cc1)C1CCCN1 (stereo not drawn) | inactive |
| COc1cc2nccc(Oc3ccc(NC(=O)Nc4cc(C)on4)c(Cl)c3)c2cc1OC | active |
| COC(=O)N[C@@H](C)CNc1nccc(-c2cn(C(C)C)nc2-c2cc(Cl)cc(NS(C)(=O)=O)c2F)n1 | inactive |
| CN1CC[C@@H](c2c(O)cc(O)c3c(=O)cc(-c4ccccc4Cl)oc23)[C@@H]1CO | inactive |
| CCn1c(=O)c(-c2cc[nH]n2)cc2c(C)nc(N)nc21 | inactive |

====

measurement-target: Serine/threonine-protein kinase SIK3 (Homo sapiens); also: in the data inactive means no Kd found up to 30 µM
Sequence (Q9Y2K2 whole entry): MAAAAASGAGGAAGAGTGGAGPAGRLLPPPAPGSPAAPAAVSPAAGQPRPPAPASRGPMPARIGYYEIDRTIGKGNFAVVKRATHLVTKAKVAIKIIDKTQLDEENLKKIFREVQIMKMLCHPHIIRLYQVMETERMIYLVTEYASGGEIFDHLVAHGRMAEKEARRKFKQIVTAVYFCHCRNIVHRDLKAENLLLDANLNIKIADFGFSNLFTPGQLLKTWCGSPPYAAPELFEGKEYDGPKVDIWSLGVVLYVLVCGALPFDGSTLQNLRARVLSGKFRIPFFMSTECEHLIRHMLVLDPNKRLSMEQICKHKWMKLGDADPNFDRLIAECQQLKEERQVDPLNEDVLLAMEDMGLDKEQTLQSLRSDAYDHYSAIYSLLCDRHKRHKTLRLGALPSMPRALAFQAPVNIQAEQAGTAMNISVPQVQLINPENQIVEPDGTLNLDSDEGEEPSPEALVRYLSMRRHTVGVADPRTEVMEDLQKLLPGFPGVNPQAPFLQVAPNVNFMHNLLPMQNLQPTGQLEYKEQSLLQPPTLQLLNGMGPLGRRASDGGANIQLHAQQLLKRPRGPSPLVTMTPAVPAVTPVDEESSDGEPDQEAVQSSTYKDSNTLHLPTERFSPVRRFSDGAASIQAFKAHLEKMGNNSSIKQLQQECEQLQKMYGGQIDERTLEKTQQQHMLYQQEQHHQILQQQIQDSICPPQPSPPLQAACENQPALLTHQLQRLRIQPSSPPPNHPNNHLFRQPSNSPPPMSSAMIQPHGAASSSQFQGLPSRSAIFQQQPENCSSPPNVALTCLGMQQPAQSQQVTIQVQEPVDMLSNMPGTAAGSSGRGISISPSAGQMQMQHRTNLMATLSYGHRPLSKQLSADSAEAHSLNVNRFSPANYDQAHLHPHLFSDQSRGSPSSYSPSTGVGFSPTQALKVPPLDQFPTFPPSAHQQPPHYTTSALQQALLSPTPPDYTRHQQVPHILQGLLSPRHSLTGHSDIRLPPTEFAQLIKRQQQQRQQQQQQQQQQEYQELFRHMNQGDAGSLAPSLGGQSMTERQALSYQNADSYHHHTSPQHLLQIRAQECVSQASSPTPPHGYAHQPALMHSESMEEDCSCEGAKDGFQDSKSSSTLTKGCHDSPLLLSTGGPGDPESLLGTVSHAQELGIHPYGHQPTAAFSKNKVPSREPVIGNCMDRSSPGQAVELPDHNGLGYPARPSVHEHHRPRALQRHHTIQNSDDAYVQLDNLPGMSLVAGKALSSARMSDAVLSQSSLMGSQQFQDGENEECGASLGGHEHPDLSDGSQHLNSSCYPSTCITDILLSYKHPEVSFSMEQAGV
Activity calls are given as the source filed them.
Possible outcomes: 1.0 (active), 0.0 (inactive)

| mol-smiles | qualitative-label |
| --- | --- |
| CN(C)C(=O)c1cc2cnc(Nc3ccc(N4CCNCC4)cn3)nc2n1C1CCCC1 | 0.0 |
| CC(C)Nc1cc(-c2c[nH]c(C(=O)N[C@H](CO)c3cccc(Cl)c3)c2)c(Cl)cn1 | 0.0 |
| O=C(Nc1cccc(Cl)c1)Nc1ncc(CCNc2ncnc3ccsc23)s1 | 0.0 |
| COc1cc2nccc(Oc3ccc(NC(=O)Nc4cc(C)on4)c(Cl)c3)c2cc1OC | 0.0 |
| COC(=O)N[C@@H](C)CNc1nccc(-c2cn(C(C)C)nc2-c2cc(Cl)cc(NS(C)(=O)=O)c2F)n1 | 0.0 |
| Cc1ccc(S(=O)(=O)Nc2nc3ccccc3nc2Nc2ccc3nsnc3c2)cc1 | 0.0 |
| N[C@@H]1CCCN(c2c(/C=C3\SC(=O)NC3=O)cccc2-c2ccccc2)C1 | 0.0 |
| Cc1cc(-c2cc(O)ccc2Cl)cc2nnc(Nc3ccc(OCCN4CCCC4)cc3)nc12 | 1.0 |
| CCn1c(=O)c(-c2cc[nH]n2)cc2c(C)nc(N)nc21 | 0.0 |

====

measurement-target: UniProtKB P36896
Sequence (P36896 whole entry): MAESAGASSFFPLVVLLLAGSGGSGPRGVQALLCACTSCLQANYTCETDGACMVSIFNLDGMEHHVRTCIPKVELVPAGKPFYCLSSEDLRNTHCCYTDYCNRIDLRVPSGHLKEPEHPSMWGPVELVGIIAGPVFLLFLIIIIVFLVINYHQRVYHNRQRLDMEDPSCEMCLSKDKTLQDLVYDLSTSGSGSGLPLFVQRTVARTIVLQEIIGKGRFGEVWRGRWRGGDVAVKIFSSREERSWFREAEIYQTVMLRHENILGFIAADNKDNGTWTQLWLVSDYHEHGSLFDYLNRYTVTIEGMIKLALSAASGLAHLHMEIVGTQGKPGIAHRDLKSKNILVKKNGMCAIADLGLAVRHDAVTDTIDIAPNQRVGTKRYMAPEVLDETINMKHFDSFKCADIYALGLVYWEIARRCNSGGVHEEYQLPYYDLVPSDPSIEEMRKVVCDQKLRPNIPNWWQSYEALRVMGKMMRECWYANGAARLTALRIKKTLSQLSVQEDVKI
Calls of active or inactive are those of the source.
Possible outcomes: 1 (active), -1 (inactive)

| compound | measurement-target | qualitative-label |
| --- | --- | --- |
| C=CC(=O)N1CCC(Oc2cc3c(Nc4ccc(Cl)c(Cl)c4F)ncnc3cc2OC)CC1 | UniProtKB P36896 | -1 |
| C[C@@H](Nc1cc(F)cc(F)c1)c1cc(C(=O)N(C)C)cc2c(=O)cc(N3CCOCC3)oc12 | UniProtKB P36896 | -1 |
| COc1ccc(-c2ccc3c(N4CCOC[C@@H]4C)nc(N4CCOC[C@@H]4C)nc3n2)cc1CO | UniProtKB P36896 | -1 |
| Cc1ccc(S(=O)(=O)Nc2nc3ccccc3nc2Nc2ccc3nsnc3c2)cc1 | UniProtKB P36896 | -1 |
| CNS(=O)(=O)Nc1nccc(Cc2c(C)c3ccc(Oc4ncccn4)cc3oc2=O)c1F | UniProtKB P36896 | -1 |
| CC(C)Nc1cc(-c2c[nH]c(C(=O)N[C@H](CO)c3cccc(Cl)c3)c2)c(Cl)cn1 | UniProtKB P36896 | -1 |
| CCc1cnn2c(NCc3ccc[n+]([O-])c3)cc(N3CCCC[C@H]3CCO)nc12 | UniProtKB P36896 | -1 |
| O=C(c1ccc(F)c(F)c1Nc1ccc(I)cc1F)N1CC(O)([C@@H]2CCCCN2)C1 | UniProtKB P36896 | -1 |
| CNC(=O)c1cc(Oc2ccc(NC(=O)Nc3ccc(Cl)c(C(F)(F)F)c3)c(F)c2)ccn1 | UniProtKB P36896 | -1 |
| CN1CC[C@@H](c2c(O)cc(O)c3c(=O)cc(-c4ccccc4Cl)oc23)[C@@H]1CO | UniProtKB P36896 | -1 |
| CC[C@H](Nc1ncnc2[nH]cnc12)c1nc2cccc(F)c2c(=O)n1-c1ccccc1 | UniProtKB P36896 | -1 |
| O=c1sn(-c2cccc3ccccc23)c(=O)n1Cc1ccccc1 | UniProtKB P36896 | -1 |
| CN1CCC(COc2cnc(-c3cccc(Cn4nc(-c5cccc(C#N)c5)ccc4=O)c3)nc2)CC1 | UniProtKB P36896 | -1 |
| COc1cc(OC)c(/C=C/S(=O)(=O)Cc2ccc(OC)c(NCC(=O)O)c2)c(OC)c1 | UniProtKB P36896 | -1 |
| CNC(=O)c1ccc(C)c(-n2c(C)cc(OCc3ccc(F)cc3F)c(Br)c2=O)c1 | UniProtKB P36896 | -1 |
| CN1CCC(CNc2ccc3ncc(-c4cccc(OC(F)(F)F)c4)n3n2)CC1 | UniProtKB P36896 | -1 |
| O=C(Nc1cccc(Cl)c1)Nc1ncc(CCNc2ncnc3ccsc23)s1 | UniProtKB P36896 | -1 |
| CN1N=C(N)c2cn([C@@H]3O[C@H](COP(=O)(O)O)[C@@H](O)[C@H]3O)c3ncnc1c23 [TRICIRIBINE PHOSPHATE] | UniProtKB P36896 | -1 |
| CC(=O)Nc1cccc(-n2c(=O)n(C3CC3)c(=O)c3c(Nc4ccc(I)cc4F)n(C)c(=O)c(C)c32)c1 | UniProtKB P36896 | -1 |
| N[C@@H]1CCCN(c2c(/C=C3\SC(=O)NC3=O)cccc2-c2ccccc2)C1 | UniProtKB P36896 | -1 |
| Cc1c(F)cc(C(=O)NC2CC2)cc1-c1ccc(C(=O)NCC(C)(C)C)cn1 | UniProtKB P36896 | -1 |
| CCn1c(=O)c(-c2cc[nH]n2)cc2c(C)nc(N)nc21 | UniProtKB P36896 | -1 |
| Cc1cc2c(F)c(Oc3ncnn4cc(OC[C@@H](C)OC(=O)[C@H](C)N)c(C)c34)ccc2[nH]1 [BRIVANIB ALANINATE] | UniProtKB P36896 | -1 |
| Cc1cc(-c2cc(O)ccc2Cl)cc2nnc(Nc3ccc(OCCN4CCCC4)cc3)nc12 | UniProtKB P36896 | 1 |
| O=C(Nc1ccc(-c2ccnc(Nc3ccc(N4CCOCC4)cc3)n2)cc1)C1CCCN1 (stereo not drawn) | UniProtKB P36896 | -1 |
| COc1cc2nccc(Oc3ccc(NC(=O)NC4CC4)c(Cl)c3)c2cc1C(N)=O | UniProtKB P36896 | -1 |
| CNC(=O)c1ccc(-c2cnc3ncc(Cc4ccc5ncccc5c4)n3n2)cc1F | UniProtKB P36896 | -1 |
| COc1cc(CCc2cc(NC(=O)c3ccc(N4C[C@@H](C)N[C@@H](C)C4)cc3)n[nH]2)cc(OC)c1 | UniProtKB P36896 | -1 |
| CCCS(=O)(=O)Nc1ccc(F)c(C(=O)c2c[nH]c3ncc(-c4ccc(Cl)cc4)cc23)c1F | UniProtKB P36896 | -1 |
| COC(=O)N[C@@H](C)CNc1nccc(-c2cn(C(C)C)nc2-c2cc(Cl)cc(NS(C)(=O)=O)c2F)n1 | UniProtKB P36896 | -1 |
| COCCNCc1ccc(-c2cc3nccc(Oc4ccc(NC(=S)NC(=O)Cc5ccc(F)cc5)cc4F)c3s2)nc1 | UniProtKB P36896 | -1 |
| COc1cc2nccc(Oc3ccc(NC(=O)Nc4cc(C)on4)c(Cl)c3)c2cc1OC | UniProtKB P36896 | -1 |
| Cc1cc(Nc2cc(N3CCN(C)CC3)nc(/C=C/c3ccccc3)n2)n[nH]1 | UniProtKB P36896 | -1 |

The values you see were collected from ChEMBL document CHEMBL3991601.
